Molecular target: frog Thyroid hormone Receptor alpha (TRa), thra-a (gene 397942)
Assay: ATG_frTRa_XSP2: Attagene TRANS-FACTORIAL Multi-Species (XSP2) HepG2 Assay for frog Thyroid hormone Receptor alpha (TRa) (AID 2283839)
Results filed as inconclusive are left out. Active and inactive are the calls of the source. Rule for the calls: active = hit-call score of the fitted dose curve at least 0.9, where 1 is the maximum; inconclusive = response in the unintended direction; inactive = score below 0.9.
Measure Name: outcome

c1ccc2c(c1)-c1cccc3cccc-2c13: inactive
O=[N+]([O-])c1ccc(Oc2ccc(Cl)cc2Cl)cc1: inactive
CCC[CH2][Sn]([Cl])([CH2]CCC)[CH2]CCC: inactive
CCC(C)c1ccc(O)cc1 (centres undefined): inactive

---

Read-out: HGF (gene 3082)
Assay: LTEA_HepaRG_HGF: Life Technologies and Expression Analysis (LTEA) Assay for Hepatocyte Growth Facto (HGF) using HepaRG (AID 2283505)
Conditions: mRNA level, 48 h; actives raise or lower the signal
Protocol: LTEA_HepaRG is a cell based, multiplexed-readout assay that uses HepaRG, a human liver cell line, with measurements taken at 48 hours after chemical dosing on a 96-well plate.LTEA_HepaRG_HGF is one of 102 assay component(s) measured in the LTEA HepaRG cell culture assay. It is a marker of Cell proliferation, survival, death.Data from the assay component LTEA_HepaRG_HGF was analyzed into 1 endpoint. […]
Calls of active or inactive are those of the source. How the source made its calls: active means hit-call score of the fitted dose curve at least 0.9, where 1 is the maximum; inactive means score below 0.9.
Classes used: true (1) = active, false (0) = inactive

Nc1ccc(Cl)cc1N: true (1)
C1=Cc2cccc3cccc1c23: false (0)
CCC(C)c1ccc(O)cc1 (stereo not given): false (0)
C=CCc1ccc2c(c1)OCO2: false (0)
[O-][Cl+]O: false (0)
Cc1ccc(N=C=O)cc1N=C=O: false (0)
CC(C)N(Cc1ccccc1)C(=O)C(C)(C)C: false (0)
c1ccc(C2CO2)cc1 (stereo not given): false (0)
OCCCl: false (0)
CCCCCCCCn1sccc1=O: true (1)
CS(=O)(=O)NC(=O)c1cc(Oc2ccc(C(F)(F)F)cc2Cl)ccc1[N+](=O)[O-]: false (0)
O=Cc1ccco1: false (0)
CCN(CC)N=O: false (0)
Clc1ccccc1Cl: false (0)
Cc1ccc([N+](=O)[O-])cc1: false (0)
CCN(CC)CCO: false (0)
c1ccc2c(c1)oc1ccccc12: false (0)
N#CC(Br)(Br)C(N)=O: false (0)
CC(C)(C)OOC(=O)c1ccccc1: false (0)
O=[N+]([O-])C(Br)(CO)CO: false (0)
C[N+](C)(C)CC1CO1 (stereo not given): false (0)
O=C(N[C@H](c1ccccc1)[C@@H]1CN2CCC1CC2)c1c(Cl)ccc(C(F)(F)F)c1Cl: false (0)
Cc1ccc(N)cc1: false (0)
COP(=S)(OC)SCN1C(=O)c2ccccc2C1=O: false (0)
Clc1ccc(C(c2ccc(Cl)cc2)C(Cl)Cl)cc1: false (0)
O=C(Oc1ccc(Br)cc1)N1CCN2CCC1CC2: false (0)
CO[C@@H]1[C@H](OC(=O)NC(=O)CCl)CC[C@]2(CO2)[C@H]1[C@@]1(C)O[C@@H]1CC=C(C)C: false (0)
ClC1=C(Cl)C2(Cl)C3C(Cl)C=CC3C1(Cl)C2(Cl)Cl (stereo not given): false (0)
CN(C)[C@@H]1C(=O)C(C(N)=O)=C(O)[C@@]2(O)C(=O)C3=C(O)c4c(O)cccc4[C@@](C)(O)[C@H]3C[C@@H]12: false (0)
CCCCOC(=O)c1ccccc1C(=O)OCc1ccccc1: false (0)
c1ccc(N=Nc2ccccc2)cc1: false (0)
Cc1cccc(N)c1N: false (0)
[Cl-].[Cl-].[Hg+2]: false (0)
Nc1ccc(Cc2ccc(N)cc2)cc1: false (0)
CC(C)(O)c1cnn2c(-c3ccc(F)c(-c4c(F)cccc4C#N)c3)cnc2n1: false (0)
